- studyTarget: A*2902 (Homo sapiens, UniProt P04439, A270S/D101N/D185E/E176V/E277Q/E87Q/F33T/G231S/H175R/I121M/I218V/I322F/K168Q/L300P/L318F/M331R/P208A/P217A/Q86L/T323A/T345S/V100A/V358M)
- protocolSummary: biochemical
- Type: binding
No end group written: not given here.
A collection of sequences and their measured pIC50
Scale explanation: pIC50 corresponds to minus log10 of a concentration expressed in moles per litre.

monomerSequence | readoutNumber
LTEITGYLY [Peptide 9012.0126] | 7.60

Shifting focus to the sequence that follows.
For RTTQLFEDNY [Peptide 9012.0149] , what is its reported pIC50?
4.95

====

A collection of substances and their measured A*1101 binding
- studyTarget: HLA-A11 (A*1101) (Homo sapiens, UniProt P04439, A114D/D185E/E176A/F33Y/L180Q/S129P/T187R)
- protocolSummary: biochemical
- Format: binding
Please give the numeric answer without any surrounding text.

Examples from the recorded data:
substance | studyTarget | A*1101 binding
F119.02 (LLGPGRPYR) [Peptide F119.02] | HLA-A11 (A*1101) (Homo sapiens, UniProt P04439, A114D/D185E/E176A/F33Y/L180Q/S129P/T187R) | 0.0091
34.0232 (RVCACPGRDK) [Peptide 34.0232] | HLA-A11 (A*1101) (Homo sapiens, UniProt P04439, A114D/D185E/E176A/F33Y/L180Q/S129P/T187R) | 0.0250
34.0050 (RVCACPGR) [Peptide 34.0050] | HLA-A11 (A*1101) (Homo sapiens, UniProt P04439, A114D/D185E/E176A/F33Y/L180Q/S129P/T187R) | 0.0490
34.0323 (RVCACPGRDRR) [Peptide 34.0323] | HLA-A11 (A*1101) (Homo sapiens, UniProt P04439, A114D/D185E/E176A/F33Y/L180Q/S129P/T187R) | 0.0290
F119.01 (MSLQRQFLR) [Peptide F119.01] | HLA-A11 (A*1101) (Homo sapiens, UniProt P04439, A114D/D185E/E176A/F33Y/L180Q/S129P/T187R) | 0.7200

Shifting focus to the substance that follows.
For 34.0171 (SSBMGGMNK) [Peptide 34.0171] , what is its reported A*1101 binding?
1.1000

====

- studyTarget: DRB1*0901 (Homo sapiens, UniProt P01903+P01911, A100R/A103E/D57H/D86V/F55Y/F60I/F76Y/I96F/K127E/L162R/M171V/P40D/Q125H/Q99R/R33Q/R42F/S133A/S66N/T210M/V115G/W38K/Y107V/Y59G/Y89S)
- protocolSummary: biochemical
- Type: binding
A collection of molecules and their measured IC50

Examples from the recorded data:
molecule | metricName | result
CSCC[C@H](NC(=O)CNC(=O)[C@H](CC(C)C)NC(=O)[C@H](CCC(N)=O)NC(=O)[C@@H](NC(=O)[C@H](CC(C)C)NC(=O)[C@H](CCC(N)=O)NC(=O)CNC(=O)[C@@H](N)Cc1ccccc1)[C@@H](C)O)C(=O)N[C@@H](CCC(=O)O)C(=O)N[C@@H](CCC(N)=O)C(=O)N[C@@H](Cc1c[nH]cn1)C(=O)N[C@@H](Cc1ccc(O)cc1)C(=O)N[C@@H](CCC(=O)O)C(=O)N[C@@H](CC(C)C)C(=O)O [Peptide 68.0028] | IC50 | > 20 µM
CC(C)C[C@H](NC(=O)CNC(=O)[C@H](CC(N)=O)NC(=O)[C@H](Cc1ccc(O)cc1)NC(=O)[C@@H](NC(=O)[C@H](CC(=O)O)NC(=O)[C@H](CC(C)C)NC(=O)[C@H](C)N)C(C)C)C(=O)N[C@@H](CC(C)C)C(=O)N1CCC[C@H]1C(=O)N1CCC[C@H]1C(=O)N[C@@H](Cc1ccc(O)cc1)C(=O)N[C@@H](C)C(=O)N[C@@H](CO)C(=O)N[C@@H](CS)C(=O)O [Peptide 68.0052] | IC50 | > 20 µM

Shifting focus to the molecule that follows.
For CSCC[C@H](NC(=O)[C@H](CS)NC(=O)[C@H](CC(N)=O)NC(=O)[C@H](CC(=O)O)NC(=O)[C@H](CCCCN)NC(=O)[C@H](CC(N)=O)NC(=O)CN)C(=O)N[C@H](C(=O)N[C@@H](Cc1ccc(O)cc1)C(=O)N[C@H](C(=O)N[C@@H](C)C(=O)N[C@@H](Cc1c[nH]c2ccccc12)C(=O)N[C@@H](CC(=O)O)C(=O)N[C@@H](CO)C(=O)N[C@H](C(=O)O)C(C)C)C(C)C)[C@@H](C)O [Peptide 1601.09] , what is its reported IC50?
> 20 µM

Reference for the values: patent US9340577B2
